- Experimental details: Pharmacokinetics assessments in phase I patients (plasma, steady state)
- Measurement context: human, plasma, oral, AUC0→τ,ss, Day 28; Cohort 2: 1500 mg QD MG005 plus 200 mg QD sorafenib; mean ± SD
Measured attribute: AUC (ng·h/mL)
Respond numerically; units are ng·h/mL and should not be typed.

In: What AUC value was documented for this compound, CNC(=O)c1cc(Oc2ccc(NC(=O)Nc3ccc(Cl)c(C(F)(F)F)c3)cc2)ccn1 [sorafenib, reference compound] ?
Out: 51400
